SYSTEM TESTED: Bovine brain tubulin (Bos taurus, UniProt P81947+Q6B856)
Construct: Bovine brain tubulin was dissolved to 200 μM; purchased Cytoskeleton; Denver, Colo; host or cells: bovine brain
Sequence (P81947 whole entry): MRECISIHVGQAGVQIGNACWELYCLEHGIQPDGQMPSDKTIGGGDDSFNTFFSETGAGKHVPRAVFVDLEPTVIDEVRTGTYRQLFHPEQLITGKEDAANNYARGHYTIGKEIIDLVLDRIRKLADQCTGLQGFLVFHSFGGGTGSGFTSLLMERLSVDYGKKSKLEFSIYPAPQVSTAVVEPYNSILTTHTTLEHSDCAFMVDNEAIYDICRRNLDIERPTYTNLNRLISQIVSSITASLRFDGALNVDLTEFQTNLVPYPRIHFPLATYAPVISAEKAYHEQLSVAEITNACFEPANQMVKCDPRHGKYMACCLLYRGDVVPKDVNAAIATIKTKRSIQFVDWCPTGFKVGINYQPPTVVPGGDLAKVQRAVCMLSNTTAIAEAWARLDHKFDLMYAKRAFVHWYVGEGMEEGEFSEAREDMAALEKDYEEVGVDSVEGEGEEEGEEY
Sequence (Q6B856 whole entry): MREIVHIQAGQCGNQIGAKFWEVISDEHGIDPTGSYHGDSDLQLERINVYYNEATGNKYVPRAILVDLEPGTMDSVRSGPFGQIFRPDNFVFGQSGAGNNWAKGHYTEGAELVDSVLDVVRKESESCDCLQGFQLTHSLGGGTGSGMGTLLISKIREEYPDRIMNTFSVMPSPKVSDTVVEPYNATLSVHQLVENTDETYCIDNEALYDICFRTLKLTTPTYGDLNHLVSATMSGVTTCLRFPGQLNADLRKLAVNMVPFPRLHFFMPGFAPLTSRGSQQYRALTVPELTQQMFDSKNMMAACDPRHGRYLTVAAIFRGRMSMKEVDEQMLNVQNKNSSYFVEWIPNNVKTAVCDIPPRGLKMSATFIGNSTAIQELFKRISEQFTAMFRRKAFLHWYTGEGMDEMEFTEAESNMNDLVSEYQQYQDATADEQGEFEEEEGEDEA
TEST DETAILS: Microtubule assembly assay (DAPI fluorescence, Microtubule Stabilization/Destabilization Assay kit)
Type: biochemical
CONDITION: peptide or control molecule; 34 μM tubulin, 37° C.; vs tubulin alone

- ORDERED RESIDUES: "ERTIPITRE [synthetic peptide of human αB crystallin C-terminal extension, residues 156-164]"
  SYSTEM TESTED: "Bovine brain tubulin (Bos taurus, UniProt P81947+Q6B856)"
  effect on rate of microtubule assembly: "increased"
- ORDERED RESIDUES: "LTITSSLSSDGV"
  SYSTEM TESTED: "Bovine brain tubulin (Bos taurus, UniProt P81947+Q6B856)"
  effect on rate of microtubule assembly: "increased"
